Provenance of the data: patent EP3248604A1

// reported fold induction at 0.5 µM per item
- Tested on: WNT-TCF targets
- method: RT-qPCR gene expression in Ls174T cells
- Assay type: cell-based, human
- condition.parameters: Homo sapiens; Ls174T; 0.5µM; 16h; over DMSO-treated controls; read-out: AXIN2 expression

compound	tested.system	fold induction at 0.5 µM
CO[C@H]1C[C@H](O[C@H]2CC[C@]3(C=O)[C@H]4CC[C@]5(C)[C@@H](C6=CC(=O)OC6)CC[C@]5(O)[C@@H]4CC[C@]3(O)C2)O[C@H](C)[C@H]1O [Cymarin, cymarin, reference compound]	WNT-TCF targets	1
CO[C@H]1C[C@H](O[C@H]2CC[C@@]3(C)[C@H](CC[C@@H]4[C@@H]3CC[C@]3(C)[C@@H](C5=CC(=O)OC5)[C@@H](OC(C)=O)C[C@]43O)C2)O[C@@H](C)[C@@H]1O [Oleandrin, oleandrin, reference compound]	WNT-TCF targets	1.6
CO[C@H]1[C@H](O)[C@H](O[C@H]2CC[C@@]3(C)[C@H](CC[C@@H]4[C@@H]3CC[C@]3(C)[C@@H](C5=CC(=O)OC5)CC[C@]43O)C2)O[C@@H](C)[C@@H]1O [Neriifolin, neriifolin, reference compound]	WNT-TCF targets	1.2

###

// reported fold induction at 0.5 µM per item
- System: WNT-TCF targets
- method: RT-qPCR gene expression in Ls174T cells
- Format: cell-based, human
- condition.parameters: Homo sapiens; Ls174T; 0.5µM; 16h; over DMSO-treated controls; read-out: CDKN1A expression
measured.attribute: fold induction at 0.5 µM

compound	numeric.readout
C[C@H]1O[C@@H](O[C@H]2[C@@H](O)C[C@H](O[C@H]3[C@@H](O)C[C@H](O[C@H]4CC[C@@]5(C)[C@H](CC[C@@H]6[C@@H]5C[C@@H](O)[C@]5(C)[C@@H](C7=CC(=O)OC7)CC[C@]65O)C4)O[C@@H]3C)O[C@@H]2C)C[C@H](O)[C@@H]1O [Digoxin, digoxin, reference compound]	3
C[C@]12CC[C@H](O)C[C@H]1CC[C@@H]1[C@@H]2CC[C@]2(C)[C@@H](C3=CC(=O)OC3)[C@@H](O)C[C@]12O [Gitoxigenin, gitoxigenin, reference compound]	0.3
CO[C@H]1C[C@H](O[C@H]2CC[C@@]3(C)[C@H](CC[C@@H]4[C@@H]3CC[C@]3(C)[C@@H](C5=CC(=O)OC5)[C@@H](OC(C)=O)C[C@]43O)C2)O[C@@H](C)[C@@H]1O [Oleandrin, oleandrin, reference compound]	1.1
C[C@H]1O[C@@H](O[C@H]2[C@@H](O)C[C@H](O[C@H]3[C@@H](O)C[C@H](O[C@H]4CC[C@@]5(C)[C@H](CC[C@@H]6[C@@H]5CC[C@]5(C)[C@@H](C7=CC(=O)OC7)CC[C@]65O)C4)O[C@@H]3C)O[C@@H]2C)C[C@H](O)[C@@H]1O [Digitoxin, digitoxin, reference compound]	1.7
C[C@@H]1O[C@@H](O[C@H]2C[C@@H](O)[C@]3(CO)[C@H]4[C@H](O)C[C@]5(C)[C@@H](C6=CC(=O)OC6)CC[C@]5(O)[C@@H]4CC[C@]3(O)C2)[C@H](O)[C@H](O)[C@H]1O [Ouabain, ouabain, reference compound]	10
CO[C@H]1C[C@H](O[C@H]2CC[C@]3(C=O)[C@H]4CC[C@]5(C)[C@@H](C6=CC(=O)OC6)CC[C@]5(O)[C@@H]4CC[C@]3(O)C2)O[C@H](C)[C@H]1O [Cymarin, cymarin, reference compound]	0.9
